test: Therapeutic index, ratio of cytotoxic TC50 for mouse HT22 cells to neuroprotective PD50 for mouse HT22 cells; format: cell-based, HT-22; conditions: read-out: TI
Give selectivity ratio for every item shown.
Output: the number by itself.

Ask: Need selectivity ratio, item NC1=CC(=O)c2ccccc2C1=O
Reply: 803

Ask: Need selectivity ratio, item CC1=C(C)C(=O)c2ccccc2C1=O
Reply: 254

Ask: Need selectivity ratio, item CN(Cc1ccccc1)C1=CC(=O)c2ccccc2C1=O
Reply: 781

Ask: Need selectivity ratio, item CNC1=CC(=O)c2ccccc2C1=O
Reply: 74

Ask: Need selectivity ratio, item O=C1C=CC(=O)c2ccccc21
Reply: 12

Ask: Need selectivity ratio, item CCNC1=CC(=O)c2ccccc2C1=O
Reply: 106

Ask: Need selectivity ratio, item CCCNC1=CC(=O)c2ccccc2C1=O
Reply: 91

Ask: Need selectivity ratio, item O=C1C=C(Nc2ccccc2)C(=O)c2ccccc21
Reply: 109

Ask: Need selectivity ratio, item O=C1C=C(NCc2ccncc2)C(=O)c2ccccc21
Reply: 1110

Ask: Need selectivity ratio, item O=C1C=C(NC2CCCC2)C(=O)c2ccccc21
Reply: 108

Ask: Need selectivity ratio, item COc1ccc(CNC2=CC(=O)c3ccccc3C2=O)cc1
Reply: 877

Ask: Need selectivity ratio, item CC1=C(N)C(=O)c2ccccc2C1=O
Reply: 31

Ask: Need selectivity ratio, item C#CCNC1=CC(=O)c2ccccc2C1=O
Reply: 442

Ask: Need selectivity ratio, item O=C(O)C1=CC(=O)c2ccccc2C1=O
Reply: 140

Ask: Need selectivity ratio, item COC(=O)c1ccc(CNC2=CC(=O)c3ccccc3C2=O)cc1
Reply: 431

Ask: Need selectivity ratio, item O=C1C=C(NCc2ccccn2)C(=O)c2ccccc21
Reply: 54

Ask: Need selectivity ratio, item O=C1C=C(NCCc2ccccc2)C(=O)c2ccccc21
Reply: 171

Ask: Need selectivity ratio, item O=C1C=C(O)C(=O)c2ccccc21
Reply: 100

Ask: Need selectivity ratio, item CC1=CC(=O)c2ccccc2C1=O
Reply: 24

Ask: Need selectivity ratio, item CC(C)NC1=CC(=O)c2ccccc2C1=O
Reply: 27

Ask: Need selectivity ratio, item O=C1C=C(NCc2cccnc2)C(=O)c2ccccc21
Reply: 172

---

test system: HT-22; assay: Neuroprotective activity in mouse HT22 cells assessed as prevention from tBuOOH-induced oxidative cell death after 3 hrs by MTS assay; format: functional, cell-based
The source made the active and inactive calls. The calls are words filed in the database; no cut-off is given here.
Select the matching outcome among 1 for active, -1 for inactive

Ask: Short answer needed: outcome of this test for Cc1c(C)c2c(c(C)c1O)CCC(C)(C(=O)O)O2 (stereo not given) ?
Reply: -1

Ask: Short answer needed: outcome of this test for COC1=C(OC)C(=O)C(C/C=C(\C)CC/C=C(\C)CC/C=C(\C)CC/C=C(\C)CC/C=C(\C)CC/C=C(\C)CC/C=C(\C)CC/C=C(\C)CC/C=C(\C)CCC=C(C)C)=C(C)C1=O ?
Reply: -1

Ask: Short answer needed: outcome of this test for CC(C)=CCC/C(C)=C/CC/C(C)=C/CC/C(C)=C/CC1=C(C)C(=O)c2ccccc2C1=O ?
Reply: 1

Ask: Short answer needed: outcome of this test for O=C1C=C(NCc2cccc(Cl)c2)C(=O)c2ccccc21 ?
Reply: 1

Ask: Short answer needed: outcome of this test for O=C1C=C(NCc2ccccc2)C(=O)c2ccccc21 ?
Reply: 1
